System: Staphylococcus aureus 209 P JC-1
measurement.protocol: Minimum inhibitory concentration (MIC)
Format: cell-based
test.context: 209PJC1; Staphylococcus aureus 209 P JC-1; bacterial suspension 10^6 cells/ml; sodium salts tested; read-out: Minimum inhibitory concentration
test.readout: MIC (µg/mL)

CC(=O)OCC1=C(C(=O)O)N2C(=O)[C@@H](NC(=O)C(NC(=O)c3ccccc3OC(C)=O)c3csc(N)n3)[C@H]2SC1 (mixture of isomers)    0.39

P. CC(=O)OCC1=C(C(=O)O)N2C(=O)[C@@H](NC(=O)C(NC(=O)c3cc(O)c(O)c(O)c3)c3csc(N)n3)[C@H]2SC1 (mixture of isomers)
Q. CO[C@@]1(NC(=O)C(NC(=O)c2cc(OC(C)=O)c(OC(C)=O)c(OC(C)=O)c2)c2csc(N)n2)C(=O)N2C(C(=O)O)=C(CSc3nnnn3C)CS[C@@H]21 (mixture of isomers)
Asked: Input pair: P , Q . Output: entry with lower MIC. State your choice using its label.
Given back: P

====

System: Pseudomonas aeruginosa K-13
measurement.protocol: Minimum inhibitory concentration (MIC)
Assay type: cell-based
test.context: K13; Pseudomonas aeruginosa K-13; bacterial suspension 10^6 cells/ml; sodium salts tested; read-out: Minimum inhibitory concentration
test.readout: MIC (µg/mL)

// solved cases for MIC follow
CC(=O)OCC1=C(C(=O)O)N2C(=O)[C@@H](NC(=O)C(NC(=O)c3cccc(O)c3O)c3csc(N)n3)[C@H]2SC1 (mixture of isomers)    0.78
CC(=O)Oc1ccc(C(=O)NC(C(=O)N[C@@H]2C(=O)N3C(C(=O)O)=C(CSc4nnnn4C)CS[C@H]23)c2csc(N)n2)cc1OC(C)=O (mixture of isomers)    0.2
CC(=O)OCC1=C(C(=O)O)N2C(=O)[C@@H](NC(=O)C(NC(=O)c3cc(OC(C)=O)c(OC(C)=O)c(OC(C)=O)c3)c3csc(N)n3)[C@H]2SC1 (mixture of isomers)    0.78
CC(=O)OCC1=C(C(=O)O)N2C(=O)[C@@H](NC(=O)C(NC(=O)c3ccc(O)c(O)c3)c3csc(N)n3)[C@H]2SC1 (mixture of isomers)    0.2
CCOC(=O)Oc1ccc(C(=O)NC(C(=O)N[C@@H]2C(=O)N3C(C(=O)O)=C(COC(C)=O)CS[C@H]23)c2csc(N)n2)cc1OC(=O)OCC (mixture of isomers)    0.2
CC(=O)Oc1cccc(C(=O)NC(C(=O)N[C@@H]2C(=O)N3C(C(=O)O)=C(CSc4nnnn4C)CS[C@H]23)c2csc(N)n2)c1OC(C)=O (mixture of isomers)    0.39
CC(=O)OCC1=C(C(=O)O)N2C(=O)[C@@H](NC(=O)C(NC(=O)c3cccc(OC(C)=O)c3OC(C)=O)c3csc(N)n3)[C@H]2SC1 (mixture of isomers)    0.39
CC(=O)OCC1=C(C(=O)O)N2C(=O)[C@@H](NC(=O)C(NC(=O)c3cc(O)c(O)c(O)c3)c3csc(N)n3)[C@H]2SC1 (mixture of isomers)    0.39
CC(=O)Oc1cc(C(=O)NC(C(=O)N[C@@H]2C(=O)N3C(C(=O)O)=C(CSc4nnnn4C)CS[C@H]23)c2csc(N)n2)cc(OC(C)=O)c1OC(C)=O (mixture of isomers)    0.2
CCOC(=O)Oc1ccc(C(=O)NC(C(=O)N[C@]2(OC)C(=O)N3C(C(=O)O)=C(COC(C)=O)CS[C@@H]32)c2csc(N)n2)cc1OC(=O)OCC (mixture of isomers)    1.56

A. CC(=O)OCC1=C(C(=O)O)N2C(=O)[C@@H](NC(=O)C(NC(=O)c3ccccc3O)c3csc(N)n3)[C@H]2SC1 (mixture of isomers)
B. CC(=O)OCC1=C(C(=O)O)N2C(=O)[C@@H](NC(=O)C(NC(=O)c3cccc(OC(C)=O)c3)c3csc(N)n3)[C@H]2SC1 (mixture of isomers)
Asked: Form field 'greater MIC' accepts A or B ; which applies? State your choice using its label.
Given back: B

1. CO[C@@]1(NC(=O)C(NC(=O)c2cc(OC(C)=O)c(OC(C)=O)c(OC(C)=O)c2)c2csc(N)n2)C(=O)N2C(C(=O)O)=C(CSc3nnnn3C)CS[C@@H]21 (mixture of isomers)
2. CC(=O)OCC1=C(C(=O)O)N2C(=O)[C@@H](NC(=O)C(NC(=O)c3ccc(O)cc3)c3csc(N)n3)[C@H]2SC1 (mixture of isomers)
Asked: Form field 'greater MIC' accepts 1 or 2 ; which applies? State your choice using its label.
Given back: 2
